Where do these numbers come from? They come from patent US9540323B2.

# experimental_target: cloned human P2Y1 receptors (Homo sapiens (Human), UniProt P47900)
# Sequence (P47900 whole entry): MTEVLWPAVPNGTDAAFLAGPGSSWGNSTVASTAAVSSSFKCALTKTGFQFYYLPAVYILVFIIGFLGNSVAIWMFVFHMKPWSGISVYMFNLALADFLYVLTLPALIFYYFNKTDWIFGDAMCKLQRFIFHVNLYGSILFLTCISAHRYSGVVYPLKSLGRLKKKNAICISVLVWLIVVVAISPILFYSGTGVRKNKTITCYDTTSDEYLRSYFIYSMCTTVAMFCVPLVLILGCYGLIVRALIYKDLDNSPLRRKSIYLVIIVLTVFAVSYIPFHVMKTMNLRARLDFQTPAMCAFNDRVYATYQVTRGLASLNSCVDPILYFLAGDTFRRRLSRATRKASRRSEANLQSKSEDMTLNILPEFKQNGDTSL
# test_details: Binding Assay B - Scintillation Proximity Assay (SPA) for P2Y1 binding, [33P] 2MeS-ADP
# measurement_conditions: SPA, 0.3 nM [33P] 2MeS-ADP, Cheng-Prusoff; read-out: P2Y1 Ki (nM) using binding assay B
experimental_endpoint: log10 Ki (log10 of the value in nM)
// stored as log10 of Ki expressed in nM

Known results for molecules:
# molecule, meas_value
records = [
    ("CC1(C)CN(c2ccccc2NC(=O)Nc2ccc(OC(F)(F)F)cc2)c2c(O)cc(F)c(-c3cc(C(F)(F)F)no3)c21", 1.11),
    ("Cc1nc(NC(=O)Nc2ccccc2N2CC(C)(C)c3c(C(F)(F)F)ccc(O)c32)cs1", 0.86),
    ("CC1(C)CN(c2ccccc2NC(=O)Nc2ccc(F)cc2F)c2c(O)ccc(C(F)(F)F)c21", 0.72),
]

**Query** What does the record list as log10 Ki for `CC1(C)CN(c2ccccc2NC(=O)Nc2ccc(OC(F)(F)F)cc2)c2c(O)ccc(-c3nc4cnccc4o3)c21` ?
**Result** 1.35

**Query** Repeat with `CC1(C)CN(c2ccccc2NC(=O)Nc2ccc(OC(F)(F)F)cc2)c2c(O)ccc(-c3ccccc3F)c21`
**Result** 0.94

**Query** Now consider `CC1(C)CN(c2ccccc2NC(=O)Nc2nc3ccc(Cl)cc3s2)c2c(O)cc(F)c(-c3ccc(Cl)cc3)c21` .
**Result** 1.54

**Query** Another molecule to check: CC(C)(C)CN1CCCC1c1ccc(NC(=O)Nc2ccccc2N2CC(C)(C)c3c(-c4nc5ccc(Cl)cc5o4)ccc(O)c32)cc1 (centres unmarked)
**Result** 1.34

**Query** What do you get for `CC1(C)CN(c2ccccc2NC(=O)Nc2nc3ccc(Cl)nc3s2)c2c(O)cc(F)c(-c3noc(C(F)(F)F)n3)c21` ?
**Result** 1.94

**Query** Also check `CC(C)(C)c1ncc(-c2c(F)cc(O)c3c2C(C)(C)CN3c2ccccc2NC(=O)Nc2ccc(OC(F)(F)F)cc2)cn1`
**Result** 1.12

**Query** Okay, and `CCC1(CC)CN(c2ccccc2NC(=O)Nc2nc3ccc(Cl)cc3s2)c2c(O)cccc21` ?
**Result** 1.15

**Query** Repeat with `CC(C)n1nc(-c2c(F)cc(O)c3c2C(C)(C)CN3c2ccccc2NC(=O)Nc2nc3ccc(F)cc3s2)cc1C(F)(F)F`
**Result** 1.52

**Query** Try `CC1(C)CN(c2ccccc2NC(=O)Nc2nc3ccc(F)cc3s2)c2c(O)ccc(-c3ccc(F)cc3)c21` next.
**Result** 1.09

**Query** // same read-out, input: `CC1(C)CN(c2ccccc2NC(=O)Nc2ccc(OC(F)(F)F)cc2)c2c(O)ccc(-c3ccc(F)c(F)c3)c21`
**Result** 0.89

**Query** Same read-out for CCC1(CC)CN(c2ccccc2NC(=O)Nc2ccc(C3CCCN3CC(C)(C)C)cc2)c2c(O)ccc(F)c21 (centres unmarked) ?
**Result** 0.56

====

# experimental_target: cloned human P2Y1 receptors (Homo sapiens (Human))
# test_details: Binding Assay B - Scintillation Proximity Assay (SPA) for P2Y1 binding, [33P] 2MeS-ADP
# measurement_conditions: SPA, 0.3 nM [33P] 2MeS-ADP, Cheng-Prusoff; read-out: P2Y1 Ki (nM) using binding assay B
experimental_endpoint: log10(Ki) (log10 of the value in nM)
The figures below represent log10 of Ki, where Ki is stated in nM.

Worked cases, log10(Ki) given:
# compound, experimental_target, meas_value
rows = [
    ("Cc1cc(-c2c(F)cc(O)c3c2C(C)(C)CN3c2ccccc2NC(=O)Nc2ccc(OC(F)(F)F)cc2)cnc1F", "cloned human P2Y1 receptors (Homo sapiens (Human))", 0.94),
    ("CC1(CC(F)(F)F)CN(c2ccccc2NC(=O)Nc2ccc(OC(F)(F)F)cc2)c2c(O)ccc(Cl)c21 (stereo not shown)", "cloned human P2Y1 receptors (Homo sapiens (Human))", 0.89),
    ("CC1(C)CN(c2ccccc2NC(=O)Nc2csc(Cl)n2)c2c(O)cc(F)c(-c3cc(C(F)(F)F)no3)c21", "cloned human P2Y1 receptors (Homo sapiens (Human))", 0.08),
    ("Cc1cccc2nc(-c3ccc(O)c4c3C(C)(C)CN4c3ccccc3NC(=O)Nc3ccc(OC(F)(F)F)cc3)oc12", "cloned human P2Y1 receptors (Homo sapiens (Human))", 1.72),
    ("CC1(C)CN(c2ccccc2NC(=O)Nc2ccc(OC(F)(F)F)cc2)c2c(O)cc(F)c(-c3nc4ccc(Cl)cc4s3)c21", "cloned human P2Y1 receptors (Homo sapiens (Human))", 1.92),
    ("CCC1(CC)CN(c2ccccc2NC(=O)Nc2nc3c(s2)CN(CC(C)C)CC3)c2c(O)ccc(Cl)c21", "cloned human P2Y1 receptors (Homo sapiens (Human))", 1.12),
    ("CCC1(CC)CN(c2ccccc2NC(=O)Nc2ccc(OC(F)(F)F)cc2)c2c(O)ccc(C)c21", "cloned human P2Y1 receptors (Homo sapiens (Human))", 0.83),
    ("CC1(C)CN(c2ccccc2NC(=O)Nc2csc(Cl)n2)c2c(O)cc(F)c(-c3nc4ccc(F)cc4s3)c21", "cloned human P2Y1 receptors (Homo sapiens (Human))", 1.51),
    ("CC1(C)CN(c2ccccc2NC(=O)Nc2ccc(OC(F)(F)F)cc2)c2c(O)c(F)cc(-c3ccc(C(F)(F)F)cc3)c21", "cloned human P2Y1 receptors (Homo sapiens (Human))", 1.18),
    ("CC1(C)CN(c2ccccc2NC(=O)Nc2nc3ccc(F)cc3s2)c2c(O)cc(F)c(-c3nc4ccc(F)cc4s3)c21", "cloned human P2Y1 receptors (Homo sapiens (Human))", 1.67),
]

**Query** Item under review: `CC(C)CN1CCc2nc(NC(=O)Nc3ccccc3N3CC(C)(C)c4c(C(F)(F)F)ccc(O)c43)sc2C1` . Reported log10(Ki)?
**Result** 0.90

**Query** Would you kindly repeat that for `CC1(C)CN(c2ccccc2NC(=O)Nc2ccc(OC(F)(F)F)cc2)c2c(O)cc(F)c(-c3ccno3)c21` ?
**Result** 0.74

**Query** Please give the result for `Cc1cccc2oc(-c3ccc(O)c4c3C(C)(C)CN4c3ccccc3NC(=O)Nc3ccc(OC(F)(F)F)cc3)nc12` too.
**Result** 1.75

**Query** Consider next the compound `CCC1(CC)CN(c2ccccc2NC(=O)Nc2ccc(OC(F)(F)F)cc2)c2c(O)ccc(C#N)c21` in the same way.
**Result** 0.89

**Query** Now try `CC1(C)CN(c2ccccc2NC(=O)Nc2ccc(OC(F)(F)F)cc2)c2c(O)ccc(-c3nc4ccc(F)cc4o3)c21` .
**Result** 1.56

**Query** Then this compound: `C=C(C)c1ccc(-c2c(F)cc(O)c3c2C(C)(C)CN3c2ccccc2NC(=O)Nc2ccc(OC(F)(F)F)cc2)cc1`
**Result** 1.47

**Query** Proceed to `CC1(C)CN(c2ccccc2NC(=O)Nc2ccc(C(F)(F)F)cc2)c2c(O)ccc(C(F)(F)F)c21`
**Result** 1.21
